- TARGET OR TEST SYSTEM: RNF31 UBA domain (Homo sapiens, UniProt Q96EP0)
- Construct: RNF31 UBA domain protein (residues 480-639) with N-terminal Thioredoxin-TEV-6×his-yBBr-3C tags; Thioredoxin (N, cleaved yes); made in house; host or cells: E. coli BL21 (DE3) pLysS
- Sequence (Q96EP0 480-639): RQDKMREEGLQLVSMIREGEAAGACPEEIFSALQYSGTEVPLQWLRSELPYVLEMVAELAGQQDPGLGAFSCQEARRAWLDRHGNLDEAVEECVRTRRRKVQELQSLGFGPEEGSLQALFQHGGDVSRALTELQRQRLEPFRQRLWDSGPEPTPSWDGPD
- EXPERIMENTAL PROTOCOL: Phage Library Screening with NGS, RNF31 UBA domain
- Format: binding
- EXPERIMENTAL SETUP: cluster C46; BLANK screen, column 2 of 5
MEASURED PROPERTY: Phage library screen NGS readout, BLANK
Respond with the number and no other words.

Please report the recorded Phage library screen NGS readout, BLANK for `DPALTNCFSAAVYCAMF` . 1

Would you kindly repeat that for `DPAQRQCLSAAVWCATF` ? 0

Follow-up entry: `DPAQMSCFSAAVYCRLF` 0

And `DPASASCLSAAIYCSMF` ? 0

Item: `DPALQSCLSAAVYCTVS` 0

Quick one: `DPAVQSCLSAAVYCAFR` 1

Lookup `DPAQLNCLSAAMYCALY` 0

Same again, this time with `DPAASQCFSAAVYCAWI` 0

Now this one: `DPAEQRCLSAAVYCAWH` 1

How about this sequence: `DPAAQACLSAAVFCAWY` 0

What do you have for `DPAALACLSAAVYCEMY` ? 1

Subsequent entry: `DPAQRQCLSAAVFCATL` 1

Same for `DPAQMFCYSAAVYCAAF` 0

Same question, `DPAHVRCTSAALWCNIF` this time 0

Try this sequence too: `DPALRTCLSAAVFCAVA` 0

* * *

- TARGET OR TEST SYSTEM: CUL1 (Homo sapiens, UniProt Q13616, L371D/V367R)
- Construct: CUL1 (Uniprot ID: Q13616, residue 15-410, V367R/L371D); GST-TEV (N, cleaved yes); made in house; host or cells: E. coli BL21 CodonPlus
- Sequence (Q13616 15-410 V367R/L371D): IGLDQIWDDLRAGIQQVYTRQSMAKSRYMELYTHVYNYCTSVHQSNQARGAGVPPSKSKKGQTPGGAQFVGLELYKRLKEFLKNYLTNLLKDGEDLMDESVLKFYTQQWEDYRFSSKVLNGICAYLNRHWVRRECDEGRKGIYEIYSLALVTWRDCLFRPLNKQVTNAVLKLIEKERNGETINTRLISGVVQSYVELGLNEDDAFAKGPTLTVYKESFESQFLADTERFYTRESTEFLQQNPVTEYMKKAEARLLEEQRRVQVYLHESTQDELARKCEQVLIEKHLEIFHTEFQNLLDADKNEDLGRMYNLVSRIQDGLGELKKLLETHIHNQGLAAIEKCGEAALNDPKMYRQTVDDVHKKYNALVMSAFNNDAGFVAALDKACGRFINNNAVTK
- EXPERIMENTAL PROTOCOL: Naive Library Presenter Screening (phage, NGS), CUL1
- Format: binding
- EXPERIMENTAL SETUP: CUL1 target concentration 100 nM
Kindly state interaction data at Target Concentration 100 for each of the entries shown.

Reported interaction data at Target Concentration 100, sequence `DPAEAACDIAALMCIID` : ____ 65

What do we get for `DPAEQMCDIAAVWCLAH` ? 35

Same thing, different sequence: `DPAEFVCDWAALACLVD` 183

Would you mind doing `DPAMLQCDMAALWCMVS` as well? 77

Ok, now `DPAQNDCEVAAFFCWLD` 233

Lookup `DPAIIQCDQAALWCVVT` 28

Please give the result for `DPAEVHCDMAALYCIIR` too. 65

Next record, please: `DPAYDWCDVAALFCLVE` 57

What would you report for `DPAYFACDIAALMCTVH` ? 131

Another sequence: `DPAEMQCDYAAILCIVR` 32

Again, but for `DPAQILCDLAALYCVVE` 61

Same thing, different sequence: `DPAVMECDWAATICDIF` 154

Also need `DPAEQECDHAALWCIVA` , thanks. 340

* * *

- TARGET OR TEST SYSTEM: MDM2 (Homo sapiens, UniProt Q00987)
- Construct: made in house
- Sequence (Q00987 25-109): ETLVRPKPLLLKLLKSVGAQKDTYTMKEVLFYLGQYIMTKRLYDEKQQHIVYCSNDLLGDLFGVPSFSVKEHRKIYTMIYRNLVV
- EXPERIMENTAL PROTOCOL: Naive Library Presenter Screening (phage, NGS), MDM2
- Type: binding
- EXPERIMENTAL SETUP: MDM2 target concentration 1000 nM, second column
Numbered stars: 1 amine (or outer) side, 2 acyl side, 3 side chain; on linkers, the order of the positions; unused ones are H or OH. Bridge positions count the residues as written; N and C are the ends. Ends that are not written are not given here. Phenylene(1,4-NHCOCH2)2 = O=C(C[*:1])Nc1ccc(NC(=O)C[*:2])cc1
I'd be grateful if you could share measured interaction data at Target Concentration 1000 for these entries.
Reply with the value as a number alone.

Please report the recorded interaction data at Target Concentration 1000 for DPAFDSCFSAAWDCMYW (linker 7-14 via Phenylene(1,4-NHCOCH2)2 (inferred)) . 84

Also, DPADSECFQAASDCQYW (linker 7-14 via Phenylene(1,4-NHCOCH2)2 (inferred)) please. 6

For DPAYASCFSAAWDCQFW (linker 7-14 via Phenylene(1,4-NHCOCH2)2 (inferred)) then? 38

One more sequence: DPANHACFQAAWDCQFF (linker 7-14 via Phenylene(1,4-NHCOCH2)2 (inferred)) 1088

* * *

- TARGET OR TEST SYSTEM: WWP1 (Homo sapiens, UniProt Q9H0M0)
- Construct: GST-TEV (N, cleaved yes); made in house; host or cells: Escherichia coli BL21 (DE3)
- EXPERIMENTAL PROTOCOL: Naive Library Presenter Screening (phage, NGS), WWP1 (construct not given)
- Assay type: binding
- EXPERIMENTAL SETUP: WWP1 target concentration 100 nM
Numbered stars: 1 amine (or outer) side, 2 acyl side, 3 side chain; on linkers, the order of the positions; unused ones are H or OH. Bridge positions count the residues as written; N and C are the ends. Ends that are not written are not given here. Phenylene(1,4-NHCOCH2)2 = O=C(C[*:1])Nc1ccc(NC(=O)C[*:2])cc1
Classes are defined on interaction data at Target Concentration 100 with ranges 1 = under 3, 2 = from 3 up to 100, 3 = 100 and over

For the record DPARLDCTAAAYVCSVL (linker 7-14 via Phenylene(1,4-NHCOCH2)2) , report the class its interaction data at Target Concentration 100 corresponds to. 3

Please give the result for DPAHQTCAFAAVLCHQN (linker 7-14 via Phenylene(1,4-NHCOCH2)2) too. 2

What would you report for DPAQQTCSQAAWVCSIL (linker 7-14 via Phenylene(1,4-NHCOCH2)2; not fully specified (C-terminus)) ? 3

Could you do the same for DPAIIRCTSAAMMCHNT (linker 7-14 via Phenylene(1,4-NHCOCH2)2) , please? 1

Do the same for DPALASCQQAAWVCEVL (linker 7-14 via Phenylene(1,4-NHCOCH2)2) please 3

For DPAWMACAWAANLCHSS (linker 7-14 via Phenylene(1,4-NHCOCH2)2) then? 2

Also DPAIQRCSTAAQVCRYL (linker 7-14 via Phenylene(1,4-NHCOCH2)2) ? 3

What do you get for DPAQLSCTVAAHVCHST (linker 7-14 via Phenylene(1,4-NHCOCH2)2; not fully specified (C-terminus)) ? 1

Try this sequence too: DPAIMSCMYAAEVCRVL (linker 7-14 via Phenylene(1,4-NHCOCH2)2) 3

What would you report for DPAHTACNQAARVCHTL (linker 7-14 via Phenylene(1,4-NHCOCH2)2) ? 3

Now the sequence DPAFLTCTLAASLCHQD (linker 7-14 via Phenylene(1,4-NHCOCH2)2) 1

And for DPAVRDCSDAAIVCELV (linker 7-14 via Phenylene(1,4-NHCOCH2)2) ? 3

Further, for DPAFIQCTHAANMCHSS (linker 7-14 via Phenylene(1,4-NHCOCH2)2) ? 2

* * *

- TARGET OR TEST SYSTEM: FBXW7-SKP1 (Homo sapiens, UniProt Q969H0)
- Construct: FBXW7 (Uniprot ID: Q969H0, residues 263-706) with an N-terminal GST-TEV tag and C-terminal AVI tag; GST-TEV (N); made in house; host or cells: E. coli BL21 (DE3)
- Sequence (Q969H0 263-706): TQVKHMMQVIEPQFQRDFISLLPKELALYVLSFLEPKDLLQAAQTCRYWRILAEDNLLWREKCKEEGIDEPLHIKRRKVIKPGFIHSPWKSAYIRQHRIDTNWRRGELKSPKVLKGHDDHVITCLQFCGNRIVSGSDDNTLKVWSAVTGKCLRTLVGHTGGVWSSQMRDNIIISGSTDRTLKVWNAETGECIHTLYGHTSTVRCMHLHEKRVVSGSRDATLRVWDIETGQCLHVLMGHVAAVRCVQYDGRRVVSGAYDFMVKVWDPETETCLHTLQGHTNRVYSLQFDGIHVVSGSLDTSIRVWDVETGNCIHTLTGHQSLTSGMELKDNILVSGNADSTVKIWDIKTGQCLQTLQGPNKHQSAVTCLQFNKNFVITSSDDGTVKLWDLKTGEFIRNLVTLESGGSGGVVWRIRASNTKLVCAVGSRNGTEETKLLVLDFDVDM
- Sequence (P63208 whole entry partner, the tested form may be a part): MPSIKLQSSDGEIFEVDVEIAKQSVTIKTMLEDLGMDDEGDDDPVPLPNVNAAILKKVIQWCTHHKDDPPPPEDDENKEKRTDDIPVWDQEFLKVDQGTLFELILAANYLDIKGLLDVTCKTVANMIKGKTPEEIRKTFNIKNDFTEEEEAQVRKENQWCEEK
- EXPERIMENTAL PROTOCOL: Naive Library Presenter Screening (phage, NGS), FBXW7-SKP1
- Assay type: binding
- EXPERIMENTAL SETUP: FBXW7 target concentration 30 nM
Numbered stars: 1 amine (or outer) side, 2 acyl side, 3 side chain; on linkers, the order of the positions; unused ones are H or OH. Bridge positions count the residues as written; N and C are the ends. Ends that are not written are not given here. Phenylene(1,4-NHCOCH2)2 = O=C(C[*:1])Nc1ccc(NC(=O)C[*:2])cc1
Entry flag: 1 (yes) if interaction data at Target Concentration 30 reaches 3; 0 (no) if it does not.

Could you tell me if the measured interaction data at Target Concentration 30 of `DPAAWICEEAAEICEFW` reaches 3 or more? 0 (no)

Next record, please: `DPAYFSCEDAAELCEWY` 0 (no)

Now this one: DPANWVCMDAAELCDFY (DPANWVCMDAAELCDFY-NH2; linker 7-14 via Phenylene(1,4-NHCOCH2)2 (inferred)) 0 (no)

Could you do the same for `DPAITTCLDAAELCDFW` , please? 1 (yes)

Same for `DPANIACDDAALLCELW` 0 (no)

Follow-up item: `DPANIACDDAALLCAFW` 0 (no)

Also check `DPAIRMCRDAAELCEFW` 0 (no)

Moving on to `DPANIACDDAALLCEFW` 1 (yes)

Repeat with `DPATYFCYDAAELCDWW` 0 (no)

Another sequence to check: `DPAMTWCLNAAELCEFW` 0 (no)

Another sequence: `DPAAFFCDDAAERCEFW` 1 (yes)

Please do the same for `DPAFWYCDEAAEMCEFW` as well. 0 (no)

Lookup `DPADMYCRDAAELCEFW` 1 (yes)

Subsequent entry: `DPADLTCEDAAELCEFW` 1 (yes)
